Values compiled from ChEMBL document CHEMBL1125131.

# assaySummary: Selectivity index, inhibition of [Ca2+] induced contraction of K+ depolarized rat aorta (IC50) to inhibition of contraction of guinea pig heart (IC25)
# Assay type: functional, Cavia porcellus
measurementLabel: Selectivity index
Field format: numeric only.

>>> df
                                   molecule   measurementlabel  measuredresult
0  CCO/C(O)=C1\C(COCCNCC(=O)NCCOC)=NC(C)=C(C(=O)OC)C1c1ccccc1Cl (centres undefined)  Selectivity index               6
1  CCO/C(O)=C1\C(COCCNC(=O)c2ccc(O)nc2)=NC(C)=C(C(=O)OC)C1c1ccccc1Cl (centres undefined)  Selectivity index              16
2  CCO/C(O)=C1\C(COCCNC(C)(C)C(N)=O)=NC(C)=C(C(=O)OC)C1c1ccccc1Cl (centres undefined)  Selectivity index               8
3  CCO/C(O)=C1\C(COCCNC(C)=O)=NC(C)=C(C(=O)OC)C1c1ccccc1Cl (centres undefined)  Selectivity index             1.6
4  CCO/C(O)=C1\C(COCC/N=C(\NC#N)NCCN(C)C)=NC(C)=C(C(=O)OC)C1c1ccccc1Cl (centres undefined)  Selectivity index               3

## Task Consider the molecule shown here: CCO/C(O)=C1\C(COCCNCC(=O)NC)=NC(C)=C(C(=O)OC)C1c1ccccc1Cl (centres undefined) What is its recorded Selectivity index?
## Result 5

## Task Entry CCO/C(O)=C1\C(COCC/N=C(/NC)NC#N)=NC(C)=C(C(=O)OC)C1c1ccccc1Cl (centres undefined) please
## Result 5

## Task Can you check CCO/C(O)=C1\C(COCCNC(=O)c2cnccn2)=NC(C)=C(C(=O)OC)C1c1ccccc1Cl (centres undefined) next?
## Result 0.8

## Task Please answer likewise for CCO/C(O)=C1\C(COCCNCC(=O)NCCN)=NC(C)=C(C(=O)OC)C1c1ccccc1Cl (centres undefined)
## Result 1

###

# assaySummary: Selectivity index, inhibition of [Ca2+] induced contraction of K+ depolarized rat aorta (IC50) to inhibition of contraction of guinea pig heart (IC25)
# Format: functional, Cavia porcellus
measurementLabel: Selectivity index
Answer as a number with no unit attached.

In [3]: df
Out[3]:
                                   compound  measuredresult
0  CCO/C(O)=C1\C(COCCN(C)/C(=N/C)NC#N)=NC(C)=C(C(=O)OC)C1c1ccccc1Cl (centres undefined)              10

## Task I have this compound here, CCO/C(O)=C1\C(COCCNS(N)(=O)=O)=NC(C)=C(C(=O)OC)C1c1ccccc1Cl (centres undefined) , and I need its recorded Selectivity index.
## Result 10

## Task Try the compound CCO/C(O)=C1\C(COCCNC(=O)c2cccnc2)=NC(C)=C(C(=O)OC)C1c1ccccc1Cl (centres undefined)
## Result 1.6

## Task Moving on to CCO/C(O)=C1\C(COCCNCC(N)=O)=NC(C)=C(C(=O)OC)C1c1ccccc1Cl (centres undefined)
## Result 20

## Task Same read-out for CCO/C(O)=C1\C(COCCNC(=O)NC)=NC(C)=C(C(=O)OC)C1c1ccccc1Cl (centres undefined) ?
## Result 13

## Task Again, but for CCO/C(O)=C1\C(COCCNC(=O)NCC(N)=O)=NC(C)=C(C(=O)OC)C1c1ccccc1Cl (centres undefined)
## Result 20

## Task What do you get for CCO/C(O)=C1\C(COCCNC(=O)Nc2ccnc(O)n2)=NC(C)=C(C(=O)OC)C1c1ccccc1Cl (centres undefined) ?
## Result 0.1

## Task Next compound up: CCO/C(O)=C1\C(COCCN(C)C(=O)NC)=NC(C)=C(C(=O)OC)C1c1ccccc1Cl (centres undefined)
## Result 5

## Task Repeat for the following compound: CCO/C(O)=C1\C(COCCN(CC(N)=O)CC(N)=O)=NC(C)=C(C(=O)OC)C1c1ccccc1Cl (centres undefined)
## Result 16

###

# assaySummary: Selectivity index, inhibition of [Ca2+] induced contraction of K+ depolarized rat aorta (IC50) to inhibition of contraction of guinea pig heart (IC25)
# Format: functional, Cavia porcellus
Label Criterion met for high-side Selectivity index (at or above 6) and Criterion not met for low-side Selectivity index (below it).

Past entries and their recorded results:
>>> print(df.to_string())
                                   compound      assignedclass
0  CCO/C(O)=C1\C(COCCNC(=O)NCCN2CCNC2=O)=NC(C)=C(C(=O)OC)C1c1ccccc1Cl (stereo not given)      Criterion met
1  CCO/C(O)=C1\C(COCCNC(=O)NCCN)=NC(C)=C(C(=O)OC)C1c1ccccc1Cl.O=C(O)/C=C\C(=O)O (stereo not given)  Criterion not met
2  CCOC(=O)CNC(=O)NCCOCC1=C(C(=O)OCC)C(c2ccccc2Cl)/C(=C(\O)OC)C(C)=N1 (stereo not given)      Criterion met

## Task Does Selectivity index meet or surpass 6 for CCO/C(O)=C1\C(COCCN(C)S(N)(=O)=O)=NC(C)=C(C(=O)OC)C1c1ccccc1Cl (stereo not given) ?
## Result Criterion met

###

# assaySummary: Plasma clearance in dogs after intravenous administration
# Assay type: ADME, organism-based, Canis lupus familiaris
# runParameters: dog
measurementLabel: clearance (mL/min/kg)
Kindly answer with a numeric value in mL/min/kg, unit omitted.

## Task Could you tell me which clearance is on file for CCO/C(O)=C1\C(COCCNCC(N)=O)=NC(C)=C(C(=O)OC)C1c1ccccc1Cl (stereo unspecified) ?
## Result 7
